Values from patent US20040024024A1

# TESTED_SYSTEM: Human recombinant MMP-9 (Homo sapiens)
# Construct: made in house; host or cells: MMP-9-transfected HT1080 cells (spent media)
# Sequence (P14780 107-707 limits assumed): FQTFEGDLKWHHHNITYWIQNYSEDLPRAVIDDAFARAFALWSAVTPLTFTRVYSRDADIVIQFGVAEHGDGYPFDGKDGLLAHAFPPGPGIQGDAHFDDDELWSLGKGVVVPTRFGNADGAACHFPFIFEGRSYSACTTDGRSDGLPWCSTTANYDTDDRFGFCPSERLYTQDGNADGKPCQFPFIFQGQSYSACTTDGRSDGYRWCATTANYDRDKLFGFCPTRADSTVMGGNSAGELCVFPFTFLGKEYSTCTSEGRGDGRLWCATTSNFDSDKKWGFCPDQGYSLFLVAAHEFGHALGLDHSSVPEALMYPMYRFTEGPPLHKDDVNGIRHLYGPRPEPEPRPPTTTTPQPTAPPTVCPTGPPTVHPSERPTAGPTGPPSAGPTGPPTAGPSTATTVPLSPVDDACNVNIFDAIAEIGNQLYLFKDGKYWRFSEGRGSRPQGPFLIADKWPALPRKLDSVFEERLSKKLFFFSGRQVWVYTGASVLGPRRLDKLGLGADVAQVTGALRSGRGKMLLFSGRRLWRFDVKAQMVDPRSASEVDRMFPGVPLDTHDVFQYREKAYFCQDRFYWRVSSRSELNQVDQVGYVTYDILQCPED
# ASSAY_DETAILS: In vitro MMP inhibition, IC50 determination (fluorogenic substrate I)
# Assay type: biochemical
# MEASUREMENT_SETUP: value outside parenthesis
PARAMETER_MEASURED: pIC50
Formally, pIC50 is defined as -log10 of the concentration c, with c in mol/L.

The examples below pair each entry with its known result.
## Task Fill in: pIC50 of COc1ccc2sc(SCCOc3ccc(S(=O)(=O)C4(C(=O)NO)CCOCC4)cc3)nc2c1 [Example 282] is ___
## Result 6.15

## Task Next: O=C1CN(c2cccc(OC(F)(F)F)c2)C(=O)N1CCCOc1ccc(S(=O)(=O)C2(C(=O)NO)CCOCC2)cc1 [Example 232]
## Result 6.06

## Task Follow-up entry: O=C(NO)C1(S(=O)(=O)c2ccc(OCCSc3nc4cc(Cl)ccc4s3)cc2)CCOCC1 [Example 281]
## Result 6.56

## Task Please give the result for COCCN1CCC(C(=O)NO)(S(=O)(=O)c2ccc(OCCCn3nnc(-c4ccc(SC)cc4)n3)cc2)CC1 [Example 130] too.
## Result 7.30

## Task And the next one, O=C1N(CCCOc2ccc(S(=O)(=O)C3(C(=O)NO)CCOCC3)cc2)CCN1c1ccc(OC(F)(F)F)cc1 [Example 194] ?
## Result 6.29

Others:
## Task Which measured pIC50 value corresponds to O=C(NO)C1(S(=O)(=O)c2ccc(OCCCc3nc(-c4c(Cl)cccc4Cl)no3)cc2)CCOCC1 [Example 214] ?
## Result 5.37

## Task Thanks! And O=C(NO)C1(S(=O)(=O)c2ccc(OCCCc3nnc(-c4ccc(OC(F)(F)F)cc4)o3)cc2)CCOCC1 [Example 200] ?
## Result 5.92

----------
# TESTED_SYSTEM: Human recombinant MMP-13 (Homo sapiens, UniProt P45452)
# Construct: made in house; host or cells: baculovirus / insect cells
# ASSAY_DETAILS: In vitro MMP inhibition, IC50 determination (fluorogenic substrate I)
# Format: biochemical
# MEASUREMENT_SETUP: value outside parentheses
pIC50: −log10 of the molar value.
Think of 9 as a floor: if pIC50 stands on it or above, it is Satisfied; beneath it, Not satisfied.

## Task Given the entry `O=C(NCCOc1ccc(S(=O)(=O)C2(C(=O)NO)CCOCC2)cc1)c1nc2ccccc2s1` , answer whether its pIC50 meets or surpasses 9.
## Result Satisfied

## Task Similarly, `C=Cc1ccc(-c2cccc(CCCOc3ccc(S(=O)(=O)C4(C(=O)NO)CCOCC4)cc3)c2)cc1` ?
## Result Not satisfied

Further cases:
## Task Does the molecule `COc1ccc(S(=O)(=O)NCCOc2ccc(S(=O)(=O)C3(C(=O)NO)CCOCC3)cc2)cc1` have recorded pIC50 that is 9 or more?
## Result Not satisfied

## Task Item: `CC(C)Cc1cccc(CCCOc2ccc(S(=O)(=O)C3(C(=O)NO)CCOCC3)cc2)c1`
## Result Not satisfied

## Task Request: `O=C(Cc1nn[nH]n1)NCCOc1ccc(S(=O)(=O)C2(C(=O)NO)CCOCC2)cc1`
## Result Not satisfied
